From: patent US20200331882A1

system: 143B; experiment: CellTiter-Glo cell proliferation; format: cell-based; settings: Homo sapiens, CTG, 72 hours, read-out: Absolute IC50
result.type: pIC50
# reply with the number alone; pIC50 is -log10 of concentration in mol/L

[ask] I am curious: what pIC50 value has been reported for Cc1ccc(C(=O)Nc2cc(N3CCNCC3)ccc2-c2ccc(/C=C/C(=O)NO)cc2C)cc1.Cl ?
[reply] 5.65

* * *

system: human colon adenocarcinoma cell HCT116; assay: MTT tumor cell proliferation; type: cell-based; settings: Homo sapiens, HCT-116, 72 h
// reported IC50 for each item listed
Put down the number, then write its unit next to it.

Past entries and their recorded results:
- compound: "CN1CCN(c2ccc(-c3ccc(/C=C/C(=O)NO)cc3)cc2)CC1 [ZZY-012]"
  result.type: "IC50"
  recorded.value: "469 nM"
- compound: "Cc1cc(/C=C/C(=O)NO)ccc1-c1ccc(N2CCNCC2)cc1NC(=O)c1ccccc1 [ZZY-002]"
  result.type: "IC50"
  recorded.value: "1290 nM"
- compound: "Cc1ccc(C(=O)Nc2cc(N3CCNCC3)ccc2-c2ccc(/C=C/C(=O)NO)cc2C)cc1.Cl [ZZY-003]"
  result.type: "IC50"
  recorded.value: "265 nM"
- compound: "Cc1cc(/C=C/C(=O)NO)ccc1-c1ccc(N2CCNCC2)cc1 [ZZY-001]"
  result.type: "IC50"
  recorded.value: "1540 nM"

In the following, a different compound is considered.
[ask] I am curious: what IC50 value has been reported for Cc1cc(/C=C/C(=O)NO)ccc1-c1ccc(N2CCN(C)CC2)cc1 [ZZY-011] ?
[reply] 728 nM
